- study-system: UniProtKB P32246
- Sequence (P32246 whole entry): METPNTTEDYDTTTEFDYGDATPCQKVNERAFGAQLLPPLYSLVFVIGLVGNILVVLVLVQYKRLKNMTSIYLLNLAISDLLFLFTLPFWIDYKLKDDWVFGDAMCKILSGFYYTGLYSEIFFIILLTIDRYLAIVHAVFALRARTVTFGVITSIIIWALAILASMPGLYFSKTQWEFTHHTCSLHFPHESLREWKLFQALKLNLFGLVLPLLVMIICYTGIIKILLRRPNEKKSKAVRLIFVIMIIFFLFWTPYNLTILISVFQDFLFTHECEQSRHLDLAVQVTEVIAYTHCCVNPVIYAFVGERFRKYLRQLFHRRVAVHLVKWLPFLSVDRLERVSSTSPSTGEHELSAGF
- test: Displacement of [125I]MIP1-alpha from human CCR1 receptor expressed in THP1 cells
- Assay type: cell-based, THP-1
pIC50: −log10 of the molar value.

{"structure-smiles": "O=S(=O)(c1ccccc1Cl)N1CCC(N2CCC(O)(c3ccc(Oc4ccccc4)cc3)CC2)CC1", "relation-sign": "<", "pIC50": 5.00}
{"structure-smiles": "O=S(=O)(c1ccccc1Cl)N1CCC(N2CCC(O)(c3ccc(Cl)c(F)c3)CC2)CC1", "relation-sign": "=", "pIC50": 6.37}
{"structure-smiles": "O=S(=O)(NCCCN1CCC(O)(c2ccc(Cl)cc2)CC1)c1ccc(C(F)(F)F)cc1", "relation-sign": "=", "pIC50": 5.03}
{"structure-smiles": "O=S(=O)(NCCCN1CCC(O)(c2ccc(Cl)cc2)CC1)c1ccc(F)cc1Cl", "relation-sign": "=", "pIC50": 6.44}
{"structure-smiles": "O=S(=O)(NCCCN1CCC(O)(c2ccc(Cl)cc2)CC1)c1cccc(Cl)c1", "relation-sign": "=", "pIC50": 6.42}
